Readings of inhibition at 10 µM for the listed compounds
Biological target: B1R receptor of the rat (bradykinin 1 receptor) (Rattus norvegicus, UniProt P97583)
Construct: host or cells: CHO K1 cells (rB1R cells)
Sequence (P97583 1-337): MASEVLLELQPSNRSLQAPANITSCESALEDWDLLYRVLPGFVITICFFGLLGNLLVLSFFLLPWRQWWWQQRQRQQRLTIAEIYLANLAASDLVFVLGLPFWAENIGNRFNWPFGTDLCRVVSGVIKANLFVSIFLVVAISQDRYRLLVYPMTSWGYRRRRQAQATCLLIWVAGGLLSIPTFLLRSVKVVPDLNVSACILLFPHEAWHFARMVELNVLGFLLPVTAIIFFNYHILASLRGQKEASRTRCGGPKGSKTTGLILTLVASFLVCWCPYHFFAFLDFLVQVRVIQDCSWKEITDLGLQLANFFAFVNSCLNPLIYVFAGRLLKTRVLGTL
Test: FLIPR Ca2+ assay (Fluo-4) on CHO K1 cells stably transfected with the B1R gene of the rat; % activation and % inhibition at 10 μM
Type: cell-based
Settings: CHO-K1, test substance 10 μM; CHO K1 rB1R cells; Ca2+ inflow after 100 nM Des-Arg9-bradykinin; read-out: B1R antagonism, rat [10 μM] % inhibition
Text: The agonistic or antagonistic action of substances can be quantified on the bradykinin receptor 1 (B1R) of the species human and rat with ectopically expressing cell lines (CHO K1 cells) and with the aid of a Ca^2+-sensitive dye (Fluo-4) using a fluorescent imaging plate reader (FLIPR). […] The agonistic or antagonistic action of substances can be determined on the bradykinin 1 receptor (B1R) of the human and rat species with the following assay. […]
Please reply with the bare figure in % and do not write the unit itself.

INPUT: Dear colleague, I am looking for the recorded inhibition at 10 µM of the following compound: O=C(COCC1CCN(S(=O)(=O)c2c(Cl)cc(Cl)cc2Cl)C1)N1CCC(O)(c2ccc(Cl)cc2)CC1 (stereo not shown)
OUTPUT: 24.1

INPUT: Dear colleague, I am looking for the recorded inhibition at 10 µM of the following compound: `CN(CCOCC(=O)N1CCC(O)(c2ccccn2)CC1)S(=O)(=O)c1c(Cl)cccc1Cl`
OUTPUT: 73.6

INPUT: Dear colleague, I am looking for the recorded inhibition at 10 µM of the following compound: Cc1cc(C)c(S(=O)(=O)N2Cc3ccccc3CC2COCC(=O)N2CCC(O)(Cc3ccccc3)CC2)c(C)c1 (stereo not shown)
OUTPUT: 80

INPUT: Dear colleague, I am looking for the recorded inhibition at 10 µM of the following compound: O=C(CCC1CCCCN1S(=O)(=O)c1ccc(Cl)cc1Cl)N1CCC(O)(c2cccnc2)CC1 (stereo not shown)
OUTPUT: 97.9

INPUT: Dear colleague, I am looking for the recorded inhibition at 10 µM of the following compound: `O=C(COC[C@@H]1Cc2ccccc2CN1S(=O)(=O)c1ccc(Cl)cc1Cl)N1CCC(O)(c2cccnc2)CC1`
OUTPUT: 97.3

INPUT: Dear colleague, I am looking for the recorded inhibition at 10 µM of the following compound: COc1cc(C)c(S(=O)(=O)N2CCCCC2COCC(=O)N2CCC(O)(c3ccc(Cl)c(C(F)(F)F)c3)CC2)c(C)c1 (stereo not shown)
OUTPUT: 99

INPUT: Dear colleague, I am looking for the recorded inhibition at 10 µM of the following compound: COc1cc(C)c(S(=O)(=O)N2CCCCC2COCC(=O)N2CCC(O)(c3ccccc3)CC2)c(C)c1 (stereo not shown)
OUTPUT: 99.3
